# Measured On: Glucocorticoid receptor (Homo sapiens) (UniProt P04150)
# Sequence (P04150 whole entry, looked up): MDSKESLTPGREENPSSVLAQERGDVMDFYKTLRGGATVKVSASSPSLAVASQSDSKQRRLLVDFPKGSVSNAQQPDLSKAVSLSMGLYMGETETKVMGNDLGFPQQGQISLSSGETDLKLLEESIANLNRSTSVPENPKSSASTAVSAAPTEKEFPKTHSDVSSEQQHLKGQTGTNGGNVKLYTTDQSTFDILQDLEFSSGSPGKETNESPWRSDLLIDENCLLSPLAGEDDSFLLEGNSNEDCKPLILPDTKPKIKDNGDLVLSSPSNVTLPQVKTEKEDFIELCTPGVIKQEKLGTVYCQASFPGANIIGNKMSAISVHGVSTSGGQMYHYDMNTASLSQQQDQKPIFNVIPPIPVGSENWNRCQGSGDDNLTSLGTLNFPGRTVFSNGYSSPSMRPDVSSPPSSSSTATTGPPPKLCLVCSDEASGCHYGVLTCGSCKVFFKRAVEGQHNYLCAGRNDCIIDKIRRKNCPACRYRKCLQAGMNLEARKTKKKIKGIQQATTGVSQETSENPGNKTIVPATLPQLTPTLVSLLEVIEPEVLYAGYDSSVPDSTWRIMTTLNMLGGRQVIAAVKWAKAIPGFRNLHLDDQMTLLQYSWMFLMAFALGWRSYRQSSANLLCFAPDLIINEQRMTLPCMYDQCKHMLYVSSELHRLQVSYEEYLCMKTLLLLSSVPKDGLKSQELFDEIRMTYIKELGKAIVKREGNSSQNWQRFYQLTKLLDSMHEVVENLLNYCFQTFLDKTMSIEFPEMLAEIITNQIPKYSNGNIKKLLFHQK
# Assay Comment: ATG_GR_TRANS: Attagene TRANS-FACTORIAL HepG2 Assay for human Glucocorticoid Receptor (GR) (AID 2282978);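 also: activators score as hits since higher reporter transcript over DMSO is fitted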
# Protocol Conditions: HepG2 Attagene TRANS GR reporter, mRNA transcription
Inconclusive results are not listed. Calls of active or inactive are those of the source. The calls were made as follows: active = hit-call score of the fitted dose curve at least 0.9, where 1 is the maximum; inconclusive = response in the unintended direction; inactive = score below 0.9.
Readout Label: outcome

The cases that follow already have their outcome on record.
{"Molecule": "Oc1ccccc1Cc1ccccc1O", "outcome": "inactive"}
{"Molecule": "Cc1cc(=O)[nH]c(=O)[nH]1", "outcome": "inactive"}
{"Molecule": "N#CC1(N)CCCCC1", "outcome": "inactive"}
{"Molecule": "C=C(C)C(=O)OCCOC(=O)C(=C)C", "outcome": "inactive"}
{"Molecule": "Cn1ccnc1", "outcome": "inactive"}
{"Molecule": "CCCCCCCC(=O)OCC(COC(=O)CCCCCCC)OC(=O)CCCCCCC", "outcome": "inactive"}
{"Molecule": "CO[Si](C)(C)OC", "outcome": "inactive"}
{"Molecule": "O=C(O)CCCC(=O)O", "outcome": "inactive"}
{"Molecule": "CCOC(=O)C1=NN(c2ccc(Cl)cc2Cl)C(C)(C(=O)OCC)C1 (stereo not given)", "outcome": "inactive"}
{"Molecule": "C=CC(=O)O[C@H]1C[C@@H]2CC[C@@]1(C)C2(C)C", "outcome": "inactive"}

query: Given the entry C=Cc1ccc(OC(C)=O)cc1 , report its measured outcome.
result: inactive

query: Same question for C=CCOC(=O)c1ccc(C(=O)OCC=C)c(C(=O)OCC=C)c1 please.
result: inactive

query: Same question for CC(=O)OCC=C(C)C please.
result: inactive

query: Same question for O=C(OCCc1ccccc1)c1ccccc1 please.
result: inactive

query: Same question for N#Cc1ccc(C(c2ccc(C#N)cc2)n2cncn2)cc1 please.
result: inactive

---

# Assay Comment: BSK_SAg_PBMCCytotoxicity: PBMC Cytotoxicity Assessment in the BioMAP Diversity Plus: SAg Assay (AID 2283093);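 also: PBMC viability measured as Alamar Blue reduction fluorescence at 546/580 nm; fitted both ways against DMSO so a hit may be loss or gain of signal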;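 as to AC50: PBMC superantigen activated with SEB plus TSST-1 one hour after compound addition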
# Protocol Conditions: primary human HUVEC with PBMC
Active and inactive are the calls of the source. The calls were made as follows: active = hit-call score of the fitted dose curve at least 0.9, where 1 is the maximum; inactive = score below 0.9.
Readout Label: AC50

{"Compound String": "O=C(Oc1ccccc1)c1ccccc1C(=O)Oc1ccccc1", "AC50": "inactive"}
{"Compound String": "C=C(C)C(=O)OCCCCCCCCCCCC", "AC50": "inactive"}
{"Compound String": "c1ccc2sc(SSN3CCOCC3)nc2c1", "AC50": "20 µM (active)"}
{"Compound String": "O=C(Cl)c1c(Cl)c(Cl)c(C(=O)Cl)c(Cl)c1Cl", "AC50": "inactive"}
{"Compound String": "CCCCCCCO", "AC50": "inactive"}

query: Given the entry CC/C=C\C/C=C\C/C=C\CCCCCCCC(=O)OC , report its measured AC50.
result: 20 µM (active)

query: Same question for C1CNCCN1 please.
result: inactive

query: Same question for CC(C)CCCCCOC(=O)CS please.
result: inactive

---

# Measured On: Transcriptional activator Myb (Homo sapiens) (UniProt P10242)
# Sequence (P10242 whole entry, looked up): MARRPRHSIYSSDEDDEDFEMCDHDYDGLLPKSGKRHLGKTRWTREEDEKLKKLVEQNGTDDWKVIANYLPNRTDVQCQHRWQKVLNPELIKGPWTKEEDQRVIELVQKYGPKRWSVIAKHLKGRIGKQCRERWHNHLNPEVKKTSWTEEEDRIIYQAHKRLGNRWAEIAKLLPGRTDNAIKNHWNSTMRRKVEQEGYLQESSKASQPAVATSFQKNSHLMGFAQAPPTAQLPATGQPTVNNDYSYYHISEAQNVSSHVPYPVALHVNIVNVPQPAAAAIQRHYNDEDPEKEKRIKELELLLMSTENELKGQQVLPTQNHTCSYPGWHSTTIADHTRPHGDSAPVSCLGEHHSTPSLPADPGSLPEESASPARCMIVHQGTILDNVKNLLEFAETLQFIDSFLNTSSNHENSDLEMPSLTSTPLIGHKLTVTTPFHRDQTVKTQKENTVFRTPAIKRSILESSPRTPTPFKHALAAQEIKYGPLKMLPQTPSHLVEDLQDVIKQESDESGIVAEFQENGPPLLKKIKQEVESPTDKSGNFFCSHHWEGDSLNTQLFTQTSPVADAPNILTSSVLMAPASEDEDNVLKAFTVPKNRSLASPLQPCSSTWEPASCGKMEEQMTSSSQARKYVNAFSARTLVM
# Assay Comment: ATG_Myb_CIS: Attagene CIS-FACTORIAL HepG2 Assay for human Myeloblastosis (Myb) Proto-Oncogene Transcription Factor (AID 2282986)
# Protocol Conditions: HepG2 Attagene CIS-FACTORIAL Myb reporter transcription; actives raise or lower the signal
Calls of active or inactive are those of the source. How the source made its calls: active means hit-call score of the fitted dose curve at least 0.9, where 1 is the maximum; inactive means score below 0.9.
Please state which outcome applies, choosing from active, inactive

{"Compound": "COC(=O)c1ccc(C(=O)OC)c(C(=O)OC)c1", "Category": "inactive"}
{"Compound": "CN(C)Cc1cc(CN(C)C)c(O)c(CN(C)C)c1", "Category": "inactive"}
{"Compound": "CCN1CCCC1=O", "Category": "inactive"}
{"Compound": "C=CC(=O)OCCCCCCOC(=O)C=C", "Category": "inactive"}

query: Any idea what this test logged for O=C(O)c1cc(O)c2ccccc2c1O ?
result: active

query: Same question for CC(C)(CO)COC(=O)C(C)(C)CO please.
result: inactive

query: Same question for CCN1CN(CC)CN(CC)C1 please.
result: inactive

query: Same question for CC(C)(C)N please.
result: inactive

query: Same question for O=C(Oc1ccccc1)c1ccccc1C(=O)Oc1ccccc1 please.
result: inactive

query: Same question for CC(C)=NNC(N)=S please.
result: inactive

query: Same question for CC=C(C)C=CC=C(C)C please.
result: inactive

query: Same question for CC12CCC(CC1)C(C)(C)O2 please.
result: inactive

query: Same question for Oc1c(Cl)cc(Cl)c(Cl)c1Cl please.
result: inactive

query: Same question for CC1=CC(C)C(C=O)CC1 (centres undefined) please.
result: inactive

query: Same question for COCC(=O)O please.
result: inactive

query: Same question for C[N+](C)(C)CCCNS(=O)(=O)C(F)(F)C(F)(F)C(F)(F)C(F)(F)C(F)(F)C(F)(F)C(F)(F)C(F)(F)F please.
result: inactive

query: Same question for CCCCCCCCCC[N+](C)(CCCCCCCCCC)CCC[Si](OC)(OC)OC please.
result: active

query: Same question for CC(C)c1cc(C(C)C)cc(C(C)C)c1 please.
result: active

query: Same question for C=CC(=O)NCOCCCC please.
result: inactive

query: Same question for CC(C)CCOCc1ccccc1 please.
result: inactive

query: Same question for C=C(C)OC(C)=O please.
result: inactive

query: Same question for CCCCCCCCCC(C)=O please.
result: inactive

query: Same question for CCCCCCCCCCCC(C)=O please.
result: inactive

query: Same question for CCC(C)C(=O)OCCc1ccccc1 (centres undefined) please.
result: inactive

query: Same question for Oc1ccc(/C=C/c2cc(O)cc(O)c2)cc1 please.
result: inactive

query: Same question for CC(C)COC(=O)CC(C(=O)OCC(C)C)S(=O)(=O)O (centres undefined) please.
result: inactive
